# System: c-Abl (mouse)
# test.details: phosphorylation enrichment, bacterial display (enrichment ratio); higher = better substrate or ligand; peptides without Tyr show the background
Give measured phosphorylation enrichment for each item. Keep answers brief.
Answers are plain numbers.

Solved entries:
LQKPMYEVQWK [KIT_Y553]; 1.36
SVTCMYSPALN [TP53_Y126_T125M]; 0.97
IGEGTYRTVFK [CDK5_Y15_G16R]; 0.638

Lab note: each sequence below needs its phosphorylation enrichment filled in.
1. SRNSKYNAEST [PSEN1_Y315_K311R]
2. LGPSDYFGEIA [PRKAR1A_Y323]
3. LARDMHDKEFF [MET_Y1230_Y1230H_YF]
4. RLNCIYYKDQT [RS1_Y165_W163C]

RESULT:
1. 0.497
2. 0.746
3. 0.91
4. 0.897

----------
Give measured phosphorylation enrichment for each item. Keep answers brief.
# target.desc: EPHB2 (UniProt P29323)
# Sequence (P29323 whole entry, looked up): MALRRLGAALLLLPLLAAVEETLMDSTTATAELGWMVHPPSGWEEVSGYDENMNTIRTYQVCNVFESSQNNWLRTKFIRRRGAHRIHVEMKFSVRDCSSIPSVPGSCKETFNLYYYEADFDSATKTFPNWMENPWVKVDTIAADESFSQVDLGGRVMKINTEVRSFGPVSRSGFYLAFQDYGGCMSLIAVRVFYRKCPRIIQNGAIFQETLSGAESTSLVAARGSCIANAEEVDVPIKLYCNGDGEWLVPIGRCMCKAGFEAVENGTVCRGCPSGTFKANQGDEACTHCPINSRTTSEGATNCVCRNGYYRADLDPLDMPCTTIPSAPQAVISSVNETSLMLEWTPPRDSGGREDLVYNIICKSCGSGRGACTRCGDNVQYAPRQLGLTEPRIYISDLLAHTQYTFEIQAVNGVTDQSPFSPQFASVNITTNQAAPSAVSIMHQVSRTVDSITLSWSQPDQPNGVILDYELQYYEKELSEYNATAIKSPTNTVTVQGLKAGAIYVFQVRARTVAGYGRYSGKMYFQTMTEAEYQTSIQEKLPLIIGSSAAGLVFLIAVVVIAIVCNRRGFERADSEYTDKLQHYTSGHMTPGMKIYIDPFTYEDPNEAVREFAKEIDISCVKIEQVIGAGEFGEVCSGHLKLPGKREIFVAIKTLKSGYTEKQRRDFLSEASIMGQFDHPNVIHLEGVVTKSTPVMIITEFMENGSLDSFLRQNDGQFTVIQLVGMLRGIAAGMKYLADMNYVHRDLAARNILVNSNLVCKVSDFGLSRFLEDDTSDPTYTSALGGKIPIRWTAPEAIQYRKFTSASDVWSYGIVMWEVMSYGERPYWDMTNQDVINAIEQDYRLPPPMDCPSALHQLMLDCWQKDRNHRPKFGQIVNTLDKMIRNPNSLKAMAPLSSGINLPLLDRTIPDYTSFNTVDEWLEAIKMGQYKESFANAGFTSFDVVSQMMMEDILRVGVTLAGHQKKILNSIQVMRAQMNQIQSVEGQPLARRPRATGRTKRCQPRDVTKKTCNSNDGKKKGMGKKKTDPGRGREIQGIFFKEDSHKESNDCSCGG
# test.details: phosphorylation enrichment, bacterial display (enrichment ratio); higher = better substrate or ligand; peptides without Tyr show the background
Answers are plain numbers.

Solved entries:
QADIIYVNTQL [MERTK_Y872_V870I]; 0.518
ETLLYYGCRRS [POR_Y564]; 0.506

Lab note: each sequence below needs its phosphorylation enrichment filled in.
1. DPLLTYRFPPN [LMNA_Y481_K486N]
2. FKEQGYHRLPS [RIN1_Y681_P686S_YF]
3. KPGVNYYFQVS
4. LQKPMYEVQWK [KIT_Y553]
5. EEGNPYYSSAR [MCCC2_Y520]
6. DDERGYRRVRC [GIGYF2_Y268_S273C]
7. HKANEYYPVVL [ADAMTS18_Y764]
8. MKDLTYSSLCF [ALOX5_Y446_A447S]

RESULT:
[0.455, 0.603, 0.602, 0.912, 0.473, 0.551, 1.45, 2.67]

----------
# target.desc: EPHB2 (UniProt P29323)
# test.details: phosphorylation enrichment, bacterial display (enrichment ratio); higher = better substrate or ligand; peptides without Tyr show the background
measured.property: phosphorylation enrichment

Solved entries:
KPRKLYTIKKP [BRD2_Y715_P714L]; 0.444
RALLNYIASKF [GSTA3_Y74_I71L_YF]; 0.624
EILLSYLRTGF [TGM1_Y365_YF]; 0.967
LLVVLYKYRCY [PSEN1_Y154]; 0.642
LWQSIYNLEAE [TNNT2_Y251]; 0.791

Lab note: each sequence below needs its phosphorylation enrichment filled in.
1. GVLKEYGEKVL [CPS1_Y529_V531E]
2. RTMPDYTSFNT [EPHB2_Y912_I909M]
3. AVDMTYDGHPV [FLNB_Y1020_V1018M]

RESULT:
0.474
0.961
4.79

QUERY: Name the recorded phosphorylation enrichment for KDPPDYKFQPR [SOX9_Y172_H169P_YF] .
RESULT: 0.44

----------
Give measured SH2 binding enrichment for each item. Keep answers brief.
# target.desc: c-Src SH2;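 note: peptide library displayed on the E. coli surface as eCPX fusions, selected cells deep-sequenced, score is each peptide's frequency after selection divided by its frequency in the input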
# test.details: SH2 binding enrichment of the phosphorylated peptide, bacterial display (enrichment ratio); higher = better substrate or ligand; peptides without Tyr show the background

LFPANYVAPMT [GRAP2_Y324]; 0.663
ALVFLSFCIIF [SIGLEC12_Y494_Y494S]; 0.793
VVEDGYEFFAK [PPP1CB_Y254]; 1.08
NWGSPYKSNGC [ZNF347_Y261]; 0.586
ISPPVYLTNEW [NRK_Y885]; 0.655
RRNEEYCLLDS [ITK_Y198]; 0.836
LDYNEYFRGLN [HPRT1_Y198_D201G]; 0.445
GSERRYTREGG [PTPRN2_Y139_S140T]; 0.485
QEGPEYWDRNT [HLA-B_Y83]; 0.377
TFGVAYRAKDK [CDK11B_Y453_V452A_YF]; 0.507

Lab note: each sequence below needs its SH2 binding enrichment filled in.
1. TQNAVYSAANY [DDX5_Y535_G533A]
2. LAGRYYALKSM [CKB_Y174]

RESULT:
1. 0.708
2. 1.67

Lab note: each sequence below needs its SH2 binding enrichment filled in.
1. KAALSYVSEIG [BPIFB2_Y36]
2. DRPSEYAARQL [ANXA13_Y90]

RESULT:
[0.457, 0.523]

----------
# System: AncSZ
# test.details: phosphorylation enrichment, bacterial display (enrichment ratio); higher = better substrate or ligand; peptides without Tyr show the background
Give measured phosphorylation enrichment for each item. Keep answers brief.
Answers are plain numbers.

RVLHNYLVWRV [ECEL1_Y400]; 2.51
HGEAYYSEVKP [PAK5_Y182]; 2.68
KTSGNYLAVTG [WDR19_Y28]; 0.573
FSEVRYMKEPY [HIPK4_Y170_V171M]; 0.852
PFQGAYLKINK [MYO1B_Y967_E969K]; 1.1

Lab note: each sequence below needs its phosphorylation enrichment filled in.
1. SSFSRYIMMPN [LEF1_Y114_G113R_YF]
2. ALECLYHREKR [TEKT5_Y195]

RESULT:
1. 0.738
2. 1.26

----------
# Tested on: c-Src
# test.details: phosphorylation enrichment, bacterial display (enrichment ratio); higher = better substrate or ligand; peptides without Tyr show the background
If the reported phosphorylation enrichment equals or exceeds 0.5, assign TRUE. If not, assign FALSE.

FGGTVCHSPVS [PRC1_Y511_Y511C]; TRUE
AYRHGYFDEEM [PLEC_Y2971_R2969H]; FALSE
KVGRVYLFLQP [ITGA2B_Y360_E355K]; FALSE
GGYNNYGYGND [HNRNPH3_Y159]; FALSE
FFTEEYVRAHP [DOCK2_Y1555_D1558A]; FALSE

QUERY: Answer whether phosphorylation enrichment of LGGAMYYLEAD [PKHD1_Y452_E457D] is greater than or equal to 0.5.
RESULT: TRUE

QUERY: Answer whether phosphorylation enrichment of LKEIRYPPFTD [ALDH3B2_Y362_H361R_YF] is greater than or equal to 0.5.
RESULT: TRUE

QUERY: Answer whether phosphorylation enrichment of FTNRNYDLDYD [MYC_Y12] is greater than or equal to 0.5.
RESULT: TRUE

QUERY: Answer whether phosphorylation enrichment of QLAPQYTFTQG [FLNA_Y1761_A1764T_YF] is greater than or equal to 0.5.
RESULT: TRUE

QUERY: Answer whether phosphorylation enrichment of LLKAGYHGVLR [TTPA_Y100] is greater than or equal to 0.5.
RESULT: TRUE

QUERY: Answer whether phosphorylation enrichment of ELTAKYLNFFQ [P3H4_Y181_YF] is greater than or equal to 0.5.
RESULT: FALSE

QUERY: Answer whether phosphorylation enrichment of KASIMYPSSNC [CXCL11_Y52_N55S] is greater than or equal to 0.5.
RESULT: FALSE

QUERY: Answer whether phosphorylation enrichment of EGDGVYTLNNE [HP_Y125] is greater than or equal to 0.5.
RESULT: TRUE

QUERY: Answer whether phosphorylation enrichment of VPFARYLAMNK [HARS1_Y138] is greater than or equal to 0.5.
RESULT: FALSE

----------
# Tested on: Fer (mouse)
# test.details: phosphorylation enrichment, bacterial display (enrichment ratio); higher = better substrate or ligand; peptides without Tyr show the background
measured.property: phosphorylation enrichment
Answers are plain numbers.

DFFDLYGGEKK [PTPN11_Y66_F71K_YF]; 0.566

Lab note: each sequence below needs its phosphorylation enrichment filled in.
1. VKKKLYEEIDQ [CYP17A1_Y329]
2. AARVSYRLASG [DCHS1_Y1582]
3. KVKPIYFHTQG [AR_Y916]
4. ADGLEYSRTEL [MMUT_Y287_G291E]

RESULT:
1. 0.372
2. 0.51
3. 0.28
4. 0.56

Lab note: each sequence below needs its phosphorylation enrichment filled in.
1. RRERLYGGGGG [FUS_Y526_P525L]
2. QADIIYVNTQL [MERTK_Y872_V870I]

RESULT:
0.499
4.18

----------
Give measured phosphorylation enrichment for each item. Keep answers brief.
# target.desc: Fyn (UniProt P06241)
# Sequence (P06241 whole entry, looked up): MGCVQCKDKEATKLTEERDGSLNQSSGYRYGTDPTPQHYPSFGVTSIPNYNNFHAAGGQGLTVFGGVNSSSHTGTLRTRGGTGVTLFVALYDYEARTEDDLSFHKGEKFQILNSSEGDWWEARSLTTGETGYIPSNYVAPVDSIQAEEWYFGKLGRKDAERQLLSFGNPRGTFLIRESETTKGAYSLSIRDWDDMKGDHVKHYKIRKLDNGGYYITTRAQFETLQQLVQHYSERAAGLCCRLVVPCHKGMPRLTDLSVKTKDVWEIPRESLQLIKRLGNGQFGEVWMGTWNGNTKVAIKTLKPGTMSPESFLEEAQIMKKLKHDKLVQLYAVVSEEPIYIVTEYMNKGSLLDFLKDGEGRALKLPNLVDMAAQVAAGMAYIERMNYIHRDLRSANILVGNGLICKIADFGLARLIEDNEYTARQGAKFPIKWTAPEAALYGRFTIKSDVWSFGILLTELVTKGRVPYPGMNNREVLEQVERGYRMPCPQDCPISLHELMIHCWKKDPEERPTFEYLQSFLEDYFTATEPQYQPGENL
# test.details: phosphorylation enrichment, bacterial display (enrichment ratio); higher = better substrate or ligand; peptides without Tyr show the background
One number for each entry.

NQELIYEGQRL [TBK1_Y354_R357Q]; 7.4
ENKGVYVPMSG [IVD_Y277_L279P]; 0.367
HPAGNYSLSSV [ARFGAP3_Y473_Q468H]; 0.409
LKEIHYPPFTD [ALDH3B2_Y362_YF]; 0.437

Lab note: each sequence below needs its phosphorylation enrichment filled in.
1. ALHRPYGCDVE [ABL2_Y80]
2. ETKKQYDSFTF [TMED3_Y85_YF]
3. EMTAEYTCTRK [ACAD9_Y325_A326T]
4. FARNSYVAGQY [G6PD_Y107]
5. RMDGTYACSFT [FLNB_Y704_YF]

RESULT:
1. 0.447
2. 0.517
3. 0.624
4. 0.389
5. 2.61
